Cytochrome P450 2D6 (Homo sapiens, UniProt P10635) data, read-out AC50;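 note: CYP2D6 member of a cytochrome P450 panel assay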
Sequence (P10635 whole entry): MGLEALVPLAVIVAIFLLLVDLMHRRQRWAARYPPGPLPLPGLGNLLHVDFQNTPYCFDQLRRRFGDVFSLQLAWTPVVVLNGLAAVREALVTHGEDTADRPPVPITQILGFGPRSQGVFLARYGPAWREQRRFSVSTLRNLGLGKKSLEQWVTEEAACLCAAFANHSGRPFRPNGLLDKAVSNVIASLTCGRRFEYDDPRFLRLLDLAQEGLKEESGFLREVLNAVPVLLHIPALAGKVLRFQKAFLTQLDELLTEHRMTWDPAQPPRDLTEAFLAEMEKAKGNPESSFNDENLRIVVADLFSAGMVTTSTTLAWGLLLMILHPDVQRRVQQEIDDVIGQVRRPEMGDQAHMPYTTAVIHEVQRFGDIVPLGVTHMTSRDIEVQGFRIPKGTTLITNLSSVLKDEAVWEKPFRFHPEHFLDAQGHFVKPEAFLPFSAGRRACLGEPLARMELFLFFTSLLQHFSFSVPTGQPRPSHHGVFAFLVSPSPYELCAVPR

// batch mode: one AC50 value per listed entry
1. C=CC[C@@H]1C=C[C@H](O/N=C(\C)CCN2CCc3nc(CC)c(CC)cc3C2)[C@H](CO)O1
2. Cc1noc(C)c1-c1nccc(NCCN2CCOCC2)n1
3. N#Cc1cccc(-c2cncnc2NCc2ccccc2)c1
4. Cc1ccc(-n2c(C)cc(/C=C(\C#N)C(=O)NCC3CCCO3)c2C)cc1 (stereo not given)
5. CCC(C)NC(=O)CCS(=O)(=O)c1ccc(Br)s1 (stereo not given)
6. CCCC(=O)Nc1c2c(nn1-c1ccc(C)cc1C)CSC2

1. 3.98 µM (inconclusive)
2. 20 µM (inconclusive)
3. 20 µM (inconclusive)
4. 14.1 µM (inconclusive)
5. 28.2 µM (inconclusive)
6. 28.2 µM (inconclusive)

Parameters: items (list). Returns: AC50 for each item.
1. CCOC(=O)CSc1nnc(Cc2ccccc2)n1-c1cccc(Cl)c1
2. COc1ccccc1-c1cncnc1N(C)Cc1ccco1
3. CCCn1c(-c2cccs2)nc2nc3ccccc3nc21
4. CC(O)(CS(=O)(=O)c1cccc(C(F)(F)F)c1)C(=O)Nc1ccc(C(F)(F)F)cc1 (stereo not given)

1: 0.0891 µM (inconclusive); 2: 25.1 µM (inconclusive); 3: 28.2 µM (inconclusive); 4: 0.0224 µM (inconclusive)

----------
target: Carboxy-terminal domain RNA polymerase II polypeptide A small phosphatase 1 (Homo sapiens, UniProt Q9GZU7); assay: inhibitors of CTDSP1, concentration-response testing, biochemical assay, absorbance-based, actives from ultra-high-throughput screening (AID 540297); assay type: functional
Sequence (Q9GZU7 whole entry, the tested form may be a part): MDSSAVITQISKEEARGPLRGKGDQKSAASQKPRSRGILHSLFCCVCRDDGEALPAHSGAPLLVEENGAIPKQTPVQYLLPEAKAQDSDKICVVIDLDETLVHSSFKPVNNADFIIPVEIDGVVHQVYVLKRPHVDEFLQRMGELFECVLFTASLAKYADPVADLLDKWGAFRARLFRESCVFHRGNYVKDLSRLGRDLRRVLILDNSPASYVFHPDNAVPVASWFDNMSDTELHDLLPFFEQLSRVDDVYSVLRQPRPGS
Active and inactive are the calls of the source.
endpoint label: IC50

Need IC50 for each of these molecules.
1. COC(=O)C1=COC(OC2OC(CO)C(O)C(O)C2O)C2C1C=CC2(O)CO (stereo not given)
2. O=C(NNC(=O)c1ccc(NC(=O)c2ccccc2)cc1)Nc1ccccc1
3. Cc1ccc(S(=O)(=O)OCC(=O)Nc2ccc(C(=O)O)c(O)c2)cc1

1: 3.19 µM (active); 2: 7.38 µM (active); 3: 4.64 µM (active)

Give measured IC50 for every item shown.
1. O=[N+]([O-])c1ccc(O)c(Nc2ncnc3ccc(Br)cc23)c1
2. C=CCn1c(COc2ccc(F)cc2)nnc1SCC(=O)NC(=O)NCc1ccco1

5.46 µM (active)
15.9 µM (active)

----------
biological target: Histone-lysine N-methyltransferase NSD2 (Homo sapiens, UniProt O96028); format: biochemical
Sequence (O96028 whole entry): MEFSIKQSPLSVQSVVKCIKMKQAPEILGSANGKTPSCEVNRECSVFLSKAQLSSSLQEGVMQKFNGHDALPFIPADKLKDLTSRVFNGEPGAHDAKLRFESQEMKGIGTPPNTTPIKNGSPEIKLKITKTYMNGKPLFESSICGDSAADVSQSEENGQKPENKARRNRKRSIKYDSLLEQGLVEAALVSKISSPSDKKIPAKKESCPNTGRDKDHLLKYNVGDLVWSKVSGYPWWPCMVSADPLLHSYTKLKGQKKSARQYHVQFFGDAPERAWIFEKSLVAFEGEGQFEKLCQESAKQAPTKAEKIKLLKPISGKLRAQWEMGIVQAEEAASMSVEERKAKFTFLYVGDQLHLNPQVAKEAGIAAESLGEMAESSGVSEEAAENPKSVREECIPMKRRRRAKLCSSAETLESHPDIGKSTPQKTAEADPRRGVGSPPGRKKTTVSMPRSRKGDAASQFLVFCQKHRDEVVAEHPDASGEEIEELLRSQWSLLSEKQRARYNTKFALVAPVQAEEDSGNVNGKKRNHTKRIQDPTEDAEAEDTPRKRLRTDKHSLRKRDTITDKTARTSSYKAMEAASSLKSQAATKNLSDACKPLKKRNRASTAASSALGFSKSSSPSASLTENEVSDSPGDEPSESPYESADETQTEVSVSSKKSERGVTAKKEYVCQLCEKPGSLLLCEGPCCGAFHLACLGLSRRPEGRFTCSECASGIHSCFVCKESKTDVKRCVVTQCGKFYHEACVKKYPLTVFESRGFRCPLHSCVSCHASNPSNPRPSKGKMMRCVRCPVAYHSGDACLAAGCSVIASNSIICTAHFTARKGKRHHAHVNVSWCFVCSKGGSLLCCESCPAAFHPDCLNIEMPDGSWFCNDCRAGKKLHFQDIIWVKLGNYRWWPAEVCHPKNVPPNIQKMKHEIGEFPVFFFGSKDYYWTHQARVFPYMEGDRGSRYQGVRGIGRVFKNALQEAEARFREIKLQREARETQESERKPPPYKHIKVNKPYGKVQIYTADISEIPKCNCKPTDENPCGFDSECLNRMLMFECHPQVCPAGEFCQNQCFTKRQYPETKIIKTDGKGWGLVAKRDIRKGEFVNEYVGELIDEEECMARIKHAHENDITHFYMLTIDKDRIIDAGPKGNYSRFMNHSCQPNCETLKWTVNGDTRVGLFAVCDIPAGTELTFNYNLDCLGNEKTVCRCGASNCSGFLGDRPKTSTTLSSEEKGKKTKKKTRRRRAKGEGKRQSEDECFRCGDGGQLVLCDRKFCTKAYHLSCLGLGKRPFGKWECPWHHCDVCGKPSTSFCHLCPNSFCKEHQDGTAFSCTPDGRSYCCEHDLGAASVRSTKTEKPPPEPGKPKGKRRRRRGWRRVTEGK
Activity calls are given as the source filed them.
Provide the reported AC50 of each item.

# example entries with known answers
| compound | AC50 |
| --- | --- |
| CN1C(=O)NC(=O)/C(=C/c2ccc([N+](=O)[O-])o2)C1=O | 15.4 µM (active) |
| Cc1c(/N=C2\C=CC(=O)c3ccccc32)c(=O)n(-c2ccccc2)n1C | 2.43 µM (active) |
| CCOC(=O)c1c2c(n(Cc3ccccc3)c1C)C(=O)C(=O)c1ccccc1-2 | 0.263 µM (active) |
| Oc1cccc(/C=N/NC(=S)Nc2cccnc2)c1O | 12.4 µM (active) |

Any idea what its AC50 is? The compound is COc1cc(N)c2ncccc2c1Br
13.1 µM (active)

----------
target: Corticotropin-releasing factor receptor 2/Corticotropin-releasing factor-binding protein (Homo sapiens, UniProt P24387+Q13324); assay: activators of CRF receptor 2 with binding protein – uHTS hits, confirmation (AID 602473); type: functional; conditions: read-out: EC50_Mean
Sequence (Q13324 whole entry): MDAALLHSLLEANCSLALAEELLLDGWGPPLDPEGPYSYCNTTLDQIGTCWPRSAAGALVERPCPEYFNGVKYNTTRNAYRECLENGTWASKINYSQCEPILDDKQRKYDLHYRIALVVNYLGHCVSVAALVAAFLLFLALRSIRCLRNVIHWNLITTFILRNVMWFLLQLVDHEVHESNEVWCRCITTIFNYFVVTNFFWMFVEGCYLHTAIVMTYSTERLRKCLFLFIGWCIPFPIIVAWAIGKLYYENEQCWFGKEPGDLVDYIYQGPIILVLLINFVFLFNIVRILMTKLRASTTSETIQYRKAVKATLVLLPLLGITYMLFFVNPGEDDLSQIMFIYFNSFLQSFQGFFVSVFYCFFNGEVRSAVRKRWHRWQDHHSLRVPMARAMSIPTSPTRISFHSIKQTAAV
Sequence (P24387 whole entry): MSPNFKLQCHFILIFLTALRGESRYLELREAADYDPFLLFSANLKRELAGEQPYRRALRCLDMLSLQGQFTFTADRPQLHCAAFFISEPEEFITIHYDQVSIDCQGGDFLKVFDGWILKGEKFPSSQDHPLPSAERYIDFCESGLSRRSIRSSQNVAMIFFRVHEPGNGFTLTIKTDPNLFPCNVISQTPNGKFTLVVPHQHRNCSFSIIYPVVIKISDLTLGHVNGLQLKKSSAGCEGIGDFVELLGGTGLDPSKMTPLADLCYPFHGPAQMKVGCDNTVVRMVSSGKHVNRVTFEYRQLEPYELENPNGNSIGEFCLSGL
The source made the active and inactive calls.
endpoint label: EC50

The following molecules have reported results that may help.
| molecule | EC50 |
| --- | --- |
| CC(C)NC(=O)CN1C(=O)CSc2ccc(S(=O)(=O)N3CCCC3)cc21 | > 53 µM (inactive) |
| O=S(=O)(/N=C(\c1ccc(F)cc1)N1CCOCC1)c1ccccc1 | > 53 µM (inactive) |
| COc1ccccc1N1CCN(Cc2c(F)cccc2Cl)CC1 | > 53 µM (inactive) |
| Cc1nn(Cc2ccccc2)c(Cl)c1C(=O)NC1CCCc2ccccc21 (stereo not drawn) | > 53 µM (inactive) |
| O=[N+]([O-])c1ccc(O)c(Nc2ncnc3ccc(Br)cc23)c1 | 5.78 µM (active) |
| O=C(Nc1ccc(N2CCCCCC2)cc1)c1ccccc1Cl | > 53 µM (inactive) |
| COc1ccccc1N1C(=O)C2C(C(=O)c3ccccc3)=NN(c3ccc(C)cc3)C2C1=O (stereo not drawn) | 5.27 µM (active) |
| Clc1ccccc1NN(Cc1ccncc1)c1ccccc1Cl | > 53 µM (inactive) |

// batch mode: one EC50 value per listed entry
1. CCOc1ccc2c(c1)=C(NN1C(=O)c3ccccc3C1=O)C(=O)N=2
2. Cc1ccc(NC(=O)CSc2nnc(Cn3cnc4ccccc43)o2)c(C)c1

1. > 53 µM (inactive)
2. > 53 µM (inactive)

Give EC50 for each listed item.
1. COc1ccc(N2C(=O)CC(c3ccc([N+](=O)[O-])cc3)C2=O)cc1 (stereo not drawn)
2. CC1C2=C(O)CC(C)(C)CC2=NC2=C1C(=O)CC(C)(C)C2 (stereo not drawn)
3. CCSc1nc2ccccc2n1CC(=O)N1CCCCC1
4. CCOc1ccc(/C=C(\C#N)C(=O)NC2CC2)c(OCC)c1
5. COc1cc(OC)cc(C(=O)Nc2ccc(S(=O)(=O)Nc3cnc4ccccc4n3)cc2)c1
6. O=C(CSc1ccccc1)N(c1ccc(Br)cc1)c1nccs1

1: > 53 µM (inactive); 2: > 53 µM (inactive); 3: > 53 µM (inactive); 4: > 53 µM (inactive); 5: > 53 µM (inactive); 6: > 53 µM (inactive)

Please state EC50 for every molecule in the list that follows.
1. O=[N+]([O-])c1cccc(/C=N/NC2=NCCCCC2)c1
2. CC(C)OC(=O)c1ccccc1C(=O)c1ccc(N)c([N+](=O)[O-])c1

> 53 µM (inactive)
> 53 µM (inactive)
